- test-system: UniProtKB P30560
- Sequence (P30560 whole entry): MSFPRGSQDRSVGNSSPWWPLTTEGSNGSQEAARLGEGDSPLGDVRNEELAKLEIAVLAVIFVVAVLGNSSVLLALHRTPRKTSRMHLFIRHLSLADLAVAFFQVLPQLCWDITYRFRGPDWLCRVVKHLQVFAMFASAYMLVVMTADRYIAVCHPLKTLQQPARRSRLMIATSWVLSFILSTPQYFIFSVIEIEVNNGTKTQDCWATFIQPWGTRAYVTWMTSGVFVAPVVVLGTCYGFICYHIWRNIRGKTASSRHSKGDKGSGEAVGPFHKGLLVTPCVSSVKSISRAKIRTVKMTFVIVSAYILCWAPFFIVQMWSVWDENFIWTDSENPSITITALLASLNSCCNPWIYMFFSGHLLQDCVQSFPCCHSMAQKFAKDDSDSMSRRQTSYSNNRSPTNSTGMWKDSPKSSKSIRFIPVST
- experimental-details: Displacement of [3H]AVP from AVP-V1a receptor binding site in rat liver

molecule	test-system	IC50 / nM
Cc1ccccc1C(=O)Nc1ccc(C(=O)N2CCN(C)c3ccccc32)cc1	UniProtKB P30560	5100
Cc1ccc(C(=O)Nc2ccc(C(=O)N3CCCc4ccccc43)cc2)cc1	UniProtKB P30560	10000
Cc1ccccc1C(=O)Nc1ccc(C(=O)N2CCN(C)Cc3ccccc32)cc1	UniProtKB P30560	1800
O=C(Cc1ccccc1)Nc1ccc(C(=O)N2CCCc3ccccc32)cc1	UniProtKB P30560	3200
CN(C)C1CCCN(C(=O)c2ccc(NC(=O)c3ccc(Cl)cc3Cl)cc2)c2ccccc21 (stereo not given)	UniProtKB P30560	1300
Cc1cccc(C(=O)Nc2ccc(C(=O)N3CCCc4ccccc43)cc2)c1	UniProtKB P30560	3100
Cc1ccccc1C(=O)Nc1ccc(C(=O)N2CCCC(N(C)C)c3ccccc32)cc1 (stereo not given) [MOZAVAPTAN]	UniProtKB P30560	1400
CNC1CCCN(C(=O)c2ccc(NC(=O)c3ccccc3C)cc2)c2ccccc21 (stereo not given)	UniProtKB P30560	720
Cc1ccccc1C(=O)Nc1ccc(C(=O)N2CCCC(O)c3ccccc32)cc1 (stereo not given)	UniProtKB P30560	140

* * *

- test-system: UniProtKB Q00788
- Sequence (Q00788 whole entry): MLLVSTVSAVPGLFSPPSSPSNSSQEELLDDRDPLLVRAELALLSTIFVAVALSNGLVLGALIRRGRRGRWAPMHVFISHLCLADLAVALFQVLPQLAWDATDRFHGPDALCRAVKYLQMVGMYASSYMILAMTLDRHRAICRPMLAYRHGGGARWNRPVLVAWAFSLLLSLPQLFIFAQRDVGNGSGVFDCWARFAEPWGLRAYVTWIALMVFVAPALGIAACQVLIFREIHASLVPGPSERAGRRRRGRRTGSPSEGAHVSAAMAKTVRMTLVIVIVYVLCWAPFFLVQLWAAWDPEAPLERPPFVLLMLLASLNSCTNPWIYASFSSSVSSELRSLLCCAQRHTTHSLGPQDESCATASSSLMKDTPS
- experimental-details: Displacement of [3H]-AVP from its AVP-V2 receptor binding site in rat kidney
# maps each entry to its IC50
metric: IC50 (nM)

compound	test-system	metric	value-measured
CCCNC1CCCN(C(=O)c2ccc(NC(=O)c3ccccc3C)cc2)c2ccccc21 (centres undefined)	UniProtKB Q00788	IC50	50
Cc1ccccc1C(=O)Nc1ccc(C(=O)N2CCCC(O)c3ccccc32)cc1 (centres undefined)	UniProtKB Q00788	IC50	29
Cc1ccccc1C(=O)Nc1ccc(C(=O)N2CCOc3ccccc32)cc1	UniProtKB Q00788	IC50	4100
Cc1ccccc1C(=O)Nc1ccc(C(=O)N2CCN(C)c3ccccc32)cc1	UniProtKB Q00788	IC50	400
COc1ccccc1C(=O)Nc1ccc(C(=O)N2CCCC(N(C)C)c3ccccc32)cc1 (centres undefined)	UniProtKB Q00788	IC50	77
CC(=O)NC1CCCN(C(=O)c2ccc(NC(=O)c3ccccc3C)cc2)c2ccccc21 (centres undefined)	UniProtKB Q00788	IC50	150
CN(C)C1CCCN(C(=O)c2ccc(NC(=O)c3ccc(Cl)cc3Cl)cc2)c2ccccc21 (centres undefined)	UniProtKB Q00788	IC50	13
CCCC(=O)Nc1ccc(C(=O)N2CCCc3ccccc32)cc1	UniProtKB Q00788	IC50	7100
O=C(Nc1ccccc1C(=O)N1CCCc2ccccc21)c1ccccc1	UniProtKB Q00788	IC50	22000
CC(C)C(=O)Nc1ccc(C(=O)N2CCCc3ccccc32)cc1	UniProtKB Q00788	IC50	8100
O=C(c1ccc(NS(=O)(=O)c2ccccc2)cc1)N1CCCCc2ccccc21	UniProtKB Q00788	IC50	1600
O=C(Nc1ccc(C(=O)N2CCCc3ccccc32)cc1)c1cccc([N+](=O)[O-])c1	UniProtKB Q00788	IC50	760
Cc1ccc(C(=O)Nc2ccc(C(=O)N3CCCc4ccccc43)cc2)c(C)c1	UniProtKB Q00788	IC50	210
Cc1cccc(C(=O)Nc2ccc(C(=O)N3CCCC(N(C)C)c4ccccc43)cc2)c1 (centres undefined)	UniProtKB Q00788	IC50	14
